biological target: human GCG receptor (Homo sapiens); construct: expressed in transfected cells; host or cells: Chinese hamster ovary (CHO); assay: In vitro cAMP activity in human GCG receptor-expressing CHO cells (LANCE cAMP kit); assay type: cell-based; details: long-acting conjugate; relative titer from cAMP EC50 compared to human GCG
Sequence (P47871 26-477): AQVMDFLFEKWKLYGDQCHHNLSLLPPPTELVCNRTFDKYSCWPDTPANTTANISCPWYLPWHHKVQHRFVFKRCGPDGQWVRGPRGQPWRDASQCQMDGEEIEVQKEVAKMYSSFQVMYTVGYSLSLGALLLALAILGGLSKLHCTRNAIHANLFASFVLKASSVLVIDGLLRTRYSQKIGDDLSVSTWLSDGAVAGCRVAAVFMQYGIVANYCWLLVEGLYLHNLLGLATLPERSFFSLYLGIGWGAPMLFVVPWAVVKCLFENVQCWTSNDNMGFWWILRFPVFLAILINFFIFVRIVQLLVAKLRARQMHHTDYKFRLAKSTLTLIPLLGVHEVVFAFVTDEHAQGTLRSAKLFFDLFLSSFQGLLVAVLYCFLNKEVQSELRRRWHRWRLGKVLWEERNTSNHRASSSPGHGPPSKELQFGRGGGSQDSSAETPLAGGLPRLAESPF
Bridge positions count the residues as written; N and C are the ends. Square brackets hold non-standard residues; d marks the D form. Ends that are not written are not given here. Aib = CC(C)(N)C(=O)O
In vitro activity compared to native-type peptide (%) vs Glucagon of 4% or higher: fulfilled. Under 4%: not fulfilled.

Consider the worked cases shown below.
Substance	Category label
21 (Y[Aib]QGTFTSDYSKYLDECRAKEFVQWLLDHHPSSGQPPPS; lactam 16-20) [compound 21]	not fulfilled
42 (Y[Aib]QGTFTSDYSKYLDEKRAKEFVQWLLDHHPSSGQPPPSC; lactam 16-20) [compound 42]	fulfilled
22 (Y[Aib]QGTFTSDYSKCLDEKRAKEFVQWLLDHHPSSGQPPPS; lactam 16-20) [compound 22]	not fulfilled
77 (Y[Aib]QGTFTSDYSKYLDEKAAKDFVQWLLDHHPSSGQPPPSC; lactam 16-20) [compound 77]	not fulfilled
50 (H[Aib]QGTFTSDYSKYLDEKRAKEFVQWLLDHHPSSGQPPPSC; lactam 16-20) [compound 50]	fulfilled

Please turn your attention to the following entry.
Kindly determine if In vitro activity compared to native-type peptide (%) vs Glucagon recorded for 43 (Y[Aib]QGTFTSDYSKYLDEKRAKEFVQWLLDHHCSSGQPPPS; lactam 16-20) [compound 43] is above or exactly 4%. fulfilled
